# measurement_notes: V-ATPase regulators in yeast, one dose – S. cerevisiae, pH-sensitive GFP, second cherry-pick, confirmation (AID 602197);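 also: plate controls were vehicle wells for no effect and positive control wells for full effect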
# condition_description: S. cerevisiae pHLuorin cytosolic pH, V-ATPase proton transport; at 10 µM
The other results are listed elsewhere or left out. The source made the active and inactive calls. Rule as the data show it: active = response above about 24%; inactive = the rest.
Hello, when you answer, please use one of the following outcomes: 1 (yes) = active, 0 (no) = inactive

input: Hey, what did the test say about "CCOC(=O)Cn1c(-c2cccnc2Cl)nc2ccccc21" ?
output: 0 (no)

input: Hey, what did the test say about "CCc1ccc(CNC(=O)CCc2nc(-c3cccs3)no2)cc1" ?
output: 0 (no)

input: Hey, what did the test say about "CCC(=O)c1ccc(OCC(=O)Nc2ccc(N3CCCCC3)cc2)cc1" ?
output: 0 (no)

input: Hey, what did the test say about "Cc1ccc(C(=O)Nc2nc3ccc(Cl)cc3s2)o1" ?
output: 0 (no)

input: Hey, what did the test say about "Cc1occc1C(=O)Nc1nnc(C2CCCCC2)s1" ?
output: 0 (no)

input: Hey, what did the test say about "O=S(=O)(c1ccc(-c2ccno2)s1)N1CCCCC1" ?
output: 0 (no)

input: Hey, what did the test say about "OCc1nc(CO)n(Cc2ccccc2)n1" ?
output: 0 (no)

input: Hey, what did the test say about COc1ccc(CCN2C(=O)N(c3ccc(OC)cc3)C(=O)C2CC(=O)Nc2ccc(OC)cc2)cc1 (stereo not drawn) ?
output: 0 (no)

input: Hey, what did the test say about "O=C1c2ccccc2C(=O)N1CCCCCCN1C(=O)c2ccccc2C1=O" ?
output: 0 (no)

input: Hey, what did the test say about "CC(=O)N1CCC(N(C(=O)Nc2ccc(Cl)cc2)C(C)C)CC1" ?
output: 0 (no)

input: Hey, what did the test say about "CCCCNc1ccc(C(=O)Nc2cccc(C)n2)cc1[N+](=O)[O-]" ?
output: 0 (no)

input: Hey, what did the test say about "Cc1cc(OC(=O)c2ccccc2)c([N+](=O)[O-])c(=O)[nH]1" ?
output: 0 (no)

input: Hey, what did the test say about "COc1ccc(/C=N/NC(=O)c2cccc(C(F)(F)F)c2)cc1" ?
output: 0 (no)

input: Hey, what did the test say about "COC(=O)c1cc(Oc2ccc(S(=O)(=O)N3CCOCC3)cc2[N+](=O)[O-])cc(C(=O)OC)c1" ?
output: 0 (no)

input: Hey, what did the test say about "COC(=O)COc1ccc2c(=O)c(Oc3ccccc3Br)coc2c1" ?
output: 0 (no)

input: Hey, what did the test say about "O=C(NC1CCN(Cc2ccccc2)CC1)c1cc(Br)c(Br)[nH]1" ?
output: 0 (no)

input: Hey, what did the test say about "COc1cccc(OC)c1C(=O)OCC(=O)/C(C#N)=C(\C)N" ?
output: 0 (no)

input: Hey, what did the test say about "CNC(=O)c1csc(Cc2c(Cl)sc3ccc(Cl)cc23)n1" ?
output: 0 (no)

input: Hey, what did the test say about "Cc1ccnc(SCC(=O)Nc2cccc(S(=O)(=O)N3CCOCC3)c2)n1" ?
output: 0 (no)

input: Hey, what did the test say about "O=S1(=O)C=C(SCCN2CCCC2)c2ccccc21" ?
output: 0 (no)

input: Hey, what did the test say about "O=C(O/N=C(/c1ccccc1)c1ccncc1)c1ccccc1[N+](=O)[O-]" ?
output: 0 (no)

input: Hey, what did the test say about "O=C(NCC1CCCCC1)c1cc(S(=O)(=O)N2CCCCC2)ccc1N1CCOCC1" ?
output: 0 (no)

input: Hey, what did the test say about "Cc1ccc2nc(-c3ccncc3)cc(C(=O)Nc3ccc(OC(F)F)cc3)c2c1" ?
output: 0 (no)

input: Hey, what did the test say about "O=C1Oc2ccccc2C(=O)/C1=C/c1ccccc1O" ?
output: 1 (yes)

input: Hey, what did the test say about "Cc1cc(=O)[nH]c(N/N=C/c2c(C)nn(-c3ccccc3Cl)c2Cl)n1" ?
output: 0 (no)

input: Hey, what did the test say about "Cc1cc(CO)nn1-c1ccc([N+](=O)[O-])cc1" ?
output: 0 (no)

input: Hey, what did the test say about CCOc1ccc(CCNC(=O)C2=C(C)C(=O)OC23CCC(C)CC3)cc1OCC (stereo not drawn) ?
output: 0 (no)

input: Hey, what did the test say about "O=C(COC(=O)c1ccccc1Br)Nc1nnc(-c2ccccc2)o1" ?
output: 0 (no)

Taken from PubChem BioAssay AID602197.
